Tested on: HT-1080
method notes: Cytotoxicity against Homo sapiens (human) HT1080 cells after 48 hr by MTT assay
Type: functional, cell-based
assay setup: HT-1080, 48 h
observed property: IC50

smiles string: COc1ccc(NC(=O)NCCO[C@H]2O[C@@H]3O[C@@]4(C)CC[C@H]5[C@H](C)CC[C@@H]([C@H]2C)[C@@]35OO4)cc1
val: > 100 µM

Ask | Which IC50 reading was recorded for the compound Cc1ccccc1NC(=O)NCCO[C@H]1O[C@@H]2O[C@@]3(C)CC[C@H]4[C@H](C)CC[C@@H]([C@H]1C)[C@@]24OO3 ?
Reply | > 100 µM

Ask | What does the data say about its IC50? Entry: C[C@H]1[C@@H](OCCNC(=O)Nc2ccccc2)O[C@@H]2O[C@@]3(C)CC[C@H]4[C@H](C)CC[C@@H]1[C@@]24OO3
Reply | > 100 µM

Ask | Field request: IC50 | item: C[C@H]1[C@H](OCCNC(=O)Nc2ccc(Br)cc2)O[C@@H]2O[C@@]3(C)CC[C@H]4[C@H](C)CC[C@@H]1[C@@]24OO3
Reply | 35.2 µM

###

Test system: HCT-116
method notes: Cytotoxicity against Homo sapiens (human) HCT116 cells after 48 hr by MTT assay
Format: functional, cell-based
assay setup: HCT-116, 48 h
Mark label 1 only when IC50 stays strictly below 50 µM. Values equal to the cut-off are label 0.

Take a look at these entries with their results.
smiles string: C[C@H]1[C@H](OCCNC(=O)Nc2ccc(Br)cc2)O[C@@H]2O[C@@]3(C)CC[C@H]4[C@H](C)CC[C@@H]1[C@@]24OO3
class assignment: label 1

smiles string: Cc1ccccc1NC(=O)NCCO[C@H]1O[C@@H]2O[C@@]3(C)CC[C@H]4[C@H](C)CC[C@@H]([C@H]1C)[C@@]24OO3
class assignment: label 0

smiles string: C[C@H]1[C@@H](OCCNC(=O)Nc2ccc([N+](=O)[O-])cc2)O[C@@H]2O[C@@]3(C)CC[C@H]4[C@H](C)CC[C@@H]1[C@@]24OO3
class assignment: label 1

Ask | is_below(IC50, 50 µM) for C[C@H]1[C@H](OCCNC(=O)Nc2ccc(Cl)cc2)O[C@@H]2O[C@@]3(C)CC[C@H]4[C@H](C)CC[C@@H]1[C@@]24OO3 ?
Reply | label 1

###

Items are presented alongside their recorded pIC50.
System: HT-1080
method notes: Cytotoxicity against Homo sapiens (human) HT1080 cells after 48 hr by MTT assay
Type: functional, cell-based
assay setup: HT-1080, 48 h
// pIC50 here means minus log10 of the molar concentration (mol/L)

smiles string: C[C@H]1[C@@H](OCCNC(=O)Nc2ccc(F)cc2)O[C@@H]2O[C@@]3(C)CC[C@H]4[C@H](C)CC[C@@H]1[C@@]24OO3
observed property: pIC50
val: 4.57

Next compound, please.
Ask | Please state recorded pIC50 (tested on HT-1080) of C[C@H]1[C@H](OCCNC(=O)Nc2ccc(Cl)cc2)O[C@@H]2O[C@@]3(C)CC[C@H]4[C@H](C)CC[C@@H]1[C@@]24OO3
Reply | 4.40

###

Tested on: HCT-116
method notes: Cytotoxicity against Homo sapiens (human) HCT116 cells after 48 hr by MTT assay
Assay type: functional, cell-based
assay setup: HCT-116, 48 h
observed property: IC50 (µM)
Expressed in µM, but write only the number.

Please review the following examples before continuing.
smiles string: Cc1ccc(C)c(NC(=O)NCCO[C@H]2O[C@@H]3O[C@@]4(C)CC[C@H]5[C@H](C)CC[C@@H]([C@H]2C)[C@@]35OO4)c1
assayed system: HCT-116
readout unit: µM
val: 47.5

smiles string: C[C@H]1[C@@H](OCCNC(=O)Nc2ccc(Cl)cc2)O[C@@H]2O[C@@]3(C)CC[C@H]4[C@H](C)CC[C@@H]1[C@@]24OO3
assayed system: HCT-116
readout unit: µM
val: 39.5

smiles string: C[C@H]1[C@@H](OCCNC(=O)Nc2ccc(Br)cc2)O[C@@H]2O[C@@]3(C)CC[C@H]4[C@H](C)CC[C@@H]1[C@@]24OO3
assayed system: HCT-116
readout unit: µM
val: 26.7

Ask | Requested read-out: IC50. Entry: C[C@H]1[C@@H](O)O[C@@H]2O[C@@]3(C)CC[C@H]4[C@H](C)CC[C@@H]1[C@@]24OO3
Reply | 95.4
